So I've got a bunch of binders here, and I need their Kd values.
experimentalSystem: T1, human iRhom2, endogenously expressed (human, UniProt Q6PJF5 1-856)
T1 construct: also called RHBDF2
T1 sequence: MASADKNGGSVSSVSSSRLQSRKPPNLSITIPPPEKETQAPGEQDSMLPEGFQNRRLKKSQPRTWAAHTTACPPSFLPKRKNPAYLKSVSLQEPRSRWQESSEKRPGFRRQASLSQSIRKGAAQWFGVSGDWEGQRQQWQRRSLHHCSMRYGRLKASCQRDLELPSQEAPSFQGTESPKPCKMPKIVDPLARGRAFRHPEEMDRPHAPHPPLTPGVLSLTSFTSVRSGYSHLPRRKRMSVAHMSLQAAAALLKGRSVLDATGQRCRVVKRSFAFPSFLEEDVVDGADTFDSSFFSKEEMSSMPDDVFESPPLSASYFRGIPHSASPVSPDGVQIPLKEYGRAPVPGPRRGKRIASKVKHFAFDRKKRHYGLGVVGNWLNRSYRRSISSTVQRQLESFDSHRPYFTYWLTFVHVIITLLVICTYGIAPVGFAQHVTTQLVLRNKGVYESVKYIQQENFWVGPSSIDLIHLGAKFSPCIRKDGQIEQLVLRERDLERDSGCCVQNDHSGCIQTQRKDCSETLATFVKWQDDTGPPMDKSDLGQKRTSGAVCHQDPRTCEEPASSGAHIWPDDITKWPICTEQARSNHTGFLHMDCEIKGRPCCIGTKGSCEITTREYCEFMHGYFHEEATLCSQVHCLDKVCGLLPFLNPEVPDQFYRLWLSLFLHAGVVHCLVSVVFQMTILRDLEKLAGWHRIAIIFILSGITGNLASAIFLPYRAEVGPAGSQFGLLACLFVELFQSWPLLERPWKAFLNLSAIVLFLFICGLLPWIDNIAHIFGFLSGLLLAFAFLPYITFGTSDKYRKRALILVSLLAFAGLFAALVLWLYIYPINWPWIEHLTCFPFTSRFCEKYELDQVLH
assayName: indirect FACS scatchard analysis on THP-1 cells
Give bare numbers, in nM.

INSERT INTO results (binder, u, measurednumber) VALUES
  ('antibody 16 (antibody, V domains shown, mouse IgG, kappa light chain; also called clone #16; purified antibody 16) VH: QVTLKESGPGILQPSQTLSLTCSFSGFSLSTFALGVGWIRQPSGRGLEWLAHIWWDDDKYYNPALKSRLTISKDTSKNHVFLKIANVDTADTATYYCARITTYYYGMDYWGQGTSVTVSS VL: DIVLSQSPATLSVTPGDSVSLFCRASQSIGNHLHWYQQESHASPRLLIKYASQSISGIPSRFSGSGSGTDFTLSINSVETEDFGMYFCQQSYNWPLTFGAGTKLELK', 'nM', 0.34);

For each entry beneath this line, provide reported Kd.
1. antibody 34 (antibody, V domains shown, mouse IgG, kappa light chain; also called clone #34; purified antibody 34) VH: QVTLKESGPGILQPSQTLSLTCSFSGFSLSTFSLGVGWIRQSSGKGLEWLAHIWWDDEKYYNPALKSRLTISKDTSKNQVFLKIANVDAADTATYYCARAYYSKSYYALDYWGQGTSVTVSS VL: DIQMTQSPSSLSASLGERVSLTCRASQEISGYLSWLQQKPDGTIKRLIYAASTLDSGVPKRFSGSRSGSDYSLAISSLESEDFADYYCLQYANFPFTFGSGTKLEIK
2. antibody 43 (antibody, V domains shown, mouse IgG, kappa light chain; also called clone #43; purified antibody 43) VH: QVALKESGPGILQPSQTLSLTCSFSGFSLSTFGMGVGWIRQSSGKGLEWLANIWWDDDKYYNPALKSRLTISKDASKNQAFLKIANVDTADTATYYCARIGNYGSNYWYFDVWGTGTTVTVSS VL: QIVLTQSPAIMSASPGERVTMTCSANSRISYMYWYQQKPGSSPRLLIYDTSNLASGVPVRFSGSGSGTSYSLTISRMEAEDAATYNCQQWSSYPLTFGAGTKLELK

1: 1.94; 2: 4.55
